# protocolDetails: Pharmacokinetics of PXD in rat plasma (HPLC-UV) after 14 days pretreatment with saline, silybinin or CG
# Type: in vivo, rats
# conditionSet: rat, plasma, po, 40 mg/kg, Group A (control: saline 14 days, then single oral 40 mg/kg PXD), rats, n = 6, mean ± SD
measurementName: Cmax (ng/mL)

FC(F)(F)c1ccc(CNc2ccc(Cc3c[nH]c4ncc(Cl)cc34)cn2)cn1 [PXD, Pexidartinib]: 10800

###

# protocolDetails: Pharmacokinetics of PXD in rat plasma (HPLC-UV) after 14 days pretreatment with saline, silybinin or CG
# Format: in vivo, rats
# conditionSet: rat, plasma, po, 40 mg/kg, Group B (silybinin aqueous solution 150 mg/kg, containing silybinin 21 mg/kg, 14 days, then single oral 40 mg/kg PXD), rats, n = 6, mean ± SD; read-out: Vz/F
measurementName: Vd/F (L/kg)

FC(F)(F)c1ccc(CNc2ccc(Cc3c[nH]c4ncc(Cl)cc34)cn2)cn1: 2.79
